# assay-notes: soluble on expression in E. coli; label from the status in PepcDB or PDB records
readout-name: soluble on expression in E. coli

- sequence: "MSLTYLIKVLELFSGVGSFSISLNTLGIEHEIVGFSETRKTATQLFCKLHNKKESENLGDVRNVSAKDLDVDLLVFGSPCQSFTRAGKQGGGLKGSDTRSALMWEAVRIMEECKPKWIVWENVPDAISRKNMPNFQNYMDELDSLNYNTYYKVLNAHELGSAQKRKRLFSISIRKDIDNGKFEFLDLTREPKHLETYLENNDQPDIANEHIHSHLILGKDENGYKIKNGTKKGYLYANNGDGIDLAYVTSKARRGRVQVKACQTIMRGKTLGTINDGVLRFYSPREYWRLQEMPDELYKHVEACNFKPSTAYDVVGGVINQLHLKTVFLSLKKAFNEGHHHHHH"
  readout-name: "soluble on expression in E. coli"
  measured: "not soluble"
- sequence: "MGSDKIHHHHHHMNTFPAVLIGGPPHSGKSVLTYLLTQYLRQRGIEHYVLRACPDGEGDWSQESTPDLVRLLRQKGAFDRTFVDRVCRDIEQRHLPLLVDVGGRPTLDQERIIQRCTHAIVLSATPQGMDEWRNRVEQYGLIIVAELHSELHGSDQIEVEKPVLRGVISGLERNAPTGGIVVEALANRLARLMHYDQAELVQQHLQRAPAELVVDLDRLARQMWVEATQRRWIPPDLPQILDSIPAKTPLAIYGRGPNWLYAALAGHTAPAPFSLFDPRLGWAQAQSLRRVPQPVADVIRWQTREEQDYTLLKAHLLEPYLDYDDLSALTVPRLDPQRGVVVSGKLPFWLLTSLIVTYHEHPWLAVIQPQLNPNSVIIFSRCEDYRPGNSIQVVLD"
  readout-name: "soluble on expression in E. coli"
  measured: "not soluble"
